# MEASUREMENT PROTOCOL: qHTS assay for identifying genotoxic compounds that show differential cytotoxicity against isogenic chicken DT40 cell lines with known DNA damage response pathways - Rev3 mutant cell line (AID 743014); also: nearly all actives have a fitted effect of over 55% in size
# STATED CONDITIONS: chicken DT40 Rev3-/- viability, CellTiter-Glo, 40 h; series mostly up to 68.4 µM
Records with an inconclusive call do not appear. Active and inactive are the calls of the source. Calls follow the shape of the dose curve; as a rule, active = well fitted cell-killing curve with a large enough effect in the repeat runs; inconclusive = weak or mixed curves, or effect the other way; inactive = no such curve, though single readings can be large or run the other way.
Return exactly one item of 1 (active), -1 (inactive)

IN: GET /call?item= NCC(O)c1cccc(O)c1 (stereo not given) returns the recorded outcome of this test.
OUT: -1

IN: GET /call?item= C[C@H]1CC[C@]2(NC1)O[C@H]1C[C@H]3[C@@H]4CC[C@H]5C[C@@H](O[C@@H]6O[C@H](CO)[C@H](O[C@@H]7O[C@H](CO)[C@@H](O)[C@H](O[C@@H]8OC[C@@H](O)[C@H](O)[C@H]8O)[C@H]7O[C@@H]7O[C@H](CO)[C@@H](O)[C@H](O)[C@H]7O)[C@H](O)[C@H]6O)CC[C@]5(C)[C@H]4CC[C@]3(C)[C@H]1[C@@H]2C returns the recorded outcome of this test.
OUT: 1

IN: GET /call?item= C[C@H]1CC[C@]2(NC1)O[C@H]1C[C@H]3[C@@H]4CC[C@H]5C[C@@H](O)CC[C@]5(C)[C@H]4CC[C@]3(C)[C@H]1[C@@H]2C returns the recorded outcome of this test.
OUT: -1

IN: GET /call?item= CC(C)CCC(=O)O[C@H]1CC[C@H]2[C@@H]3CCC4=CC(=O)CC[C@]4(C)[C@H]3CC[C@]12C returns the recorded outcome of this test.
OUT: -1

IN: GET /call?item= C[C@@H](Cc1ccccc1)NCCC(c1ccccc1)c1ccccc1 returns the recorded outcome of this test.
OUT: 1

---

# MEASUREMENT PROTOCOL: qHTS assay to test for compound auto fluorescence at 460 nm (blue) in HepG2 cells (AID 720687)
# STATED CONDITIONS: autofluorescence 405/460 nm, 1 h; series mostly up to 46 µM
Calls of active or inactive are those of the source. The call rests on the fitted dose curve; in most records, active means well fitted curve in the direction sought with a large enough effect in the repeat runs; inconclusive means weak or mixed curves; inactive means flat fitted curve, though single readings scatter.
Return exactly one item of active, inactive

IN: GET /call?item= O=c1ccc2cc(O[C@@H]3O[C@H](CO)[C@@H](O)[C@H](O)[C@H]3O)c(O)cc2o1 returns the recorded outcome of this test.
OUT: active

IN: GET /call?item= CC1(C)[C@H](C=C(Cl)Cl)[C@H]1C(=O)OCc1c(F)c(F)cc(F)c1F returns the recorded outcome of this test.
OUT: inactive

IN: GET /call?item= C=CCN(C1=NCCN1)c1c(Cl)cccc1Cl returns the recorded outcome of this test.
OUT: inactive

IN: GET /call?item= Oc1cccc[c]1[Hg][Cl] returns the recorded outcome of this test.
OUT: inactive

IN: GET /call?item= CCC1(C)CC(=O)NC(=O)C1 returns the recorded outcome of this test.
OUT: inactive

IN: GET /call?item= N#CC(C#N)=Cc1cc(O)c(O)c(O)c1 returns the recorded outcome of this test.
OUT: inactive

IN: GET /call?item= CC(=O)OCC(=O)[C@H]1CC[C@H]2[C@@H]3CC[C@H]4C[C@H](O)CC[C@]4(C)[C@H]3C(=O)C[C@]12C returns the recorded outcome of this test.
OUT: inactive

IN: GET /call?item= CCNC(C)Cc1cccc(C(F)(F)F)c1 (stereo not given) returns the recorded outcome of this test.
OUT: inactive

IN: GET /call?item= CN[C@@H](C)Cc1ccccc1 returns the recorded outcome of this test.
OUT: inactive

IN: GET /call?item= CC(C)(O)[C@@H]1[C@H]2OC(=O)[C@@H]1[C@]1(O)C[C@H]3O[C@]34C(=O)O[C@H]2[C@]14C returns the recorded outcome of this test.
OUT: inactive

---

# MEASUREMENT PROTOCOL: qHTS assay for identifying genotoxic compounds that show differential cytotoxicity against isogenic chicken DT40 cell lines with known DNA damage response pathways - wild type cell line (AID 743012); also: nearly all actives have a fitted effect of over 60% in size
# STATED CONDITIONS: DT40 wild type chicken cells viability, CellTiter-Glo, 40 h; series mostly up to 68.4 µM
Records with an inconclusive call do not appear. Activity calls are given as the source filed them. Calls follow the shape of the dose curve; as a rule, active = well fitted cell-killing curve with a large enough effect in the repeat runs; inconclusive = weak or mixed curves, or effect the other way; inactive = no such curve, though single readings can be large or run the other way.
Return exactly one item of active, inactive

IN: GET /call?item= Cc1nnc2n1-c1ccc(Cl)cc1C(c1ccccc1)=NC2 returns the recorded outcome of this test.
OUT: inactive

IN: GET /call?item= CC(=O)O[C@H]1C[C@H](O[C@H]2[C@@H](O)C[C@H](O[C@H]3[C@@H](O)C[C@H](O[C@H]4CC[C@@]5(C)[C@H](CC[C@@H]6[C@@H]5C[C@@H](O)[C@]5(C)[C@@H](C7=CC(=O)OC7)CC[C@]65O)C4)O[C@@H]3C)O[C@@H]2C)O[C@H](C)[C@H]1O[C@@H]1O[C@H](CO)[C@@H](O)[C@H](O)[C@H]1O returns the recorded outcome of this test.
OUT: active

IN: GET /call?item= OC[C@@H](O)[C@H]1O[C@@H]2O[C@@H](C(Cl)(Cl)Cl)O[C@@H]2[C@H]1O returns the recorded outcome of this test.
OUT: inactive

IN: GET /call?item= CCC1C(C)=NN=C(c2ccc(OC)c(OC)c2)c2cc(OC)c(OC)cc21 (stereo unspecified) returns the recorded outcome of this test.
OUT: inactive

IN: GET /call?item= c1ccc(C2(c3ccccc3)CC2C2=NCCN2)cc1 (stereo unspecified) returns the recorded outcome of this test.
OUT: inactive

IN: GET /call?item= O=C1CN(O)C(c2ccccc2)=c2cc(Cl)ccc2=N1 returns the recorded outcome of this test.
OUT: inactive

---

# MEASUREMENT PROTOCOL: qHTS assay for identifying genotoxic compounds that show differential cytotoxicity against isogenic chicken DT40 cell lines with known DNA damage response pathways - wild type cell line (AID 743012); also: nearly all actives have a fitted effect of over 60% in size
# STATED CONDITIONS: DT40 wild type chicken cells viability, CellTiter-Glo, 40 h; series mostly up to 68.4 µM
Inconclusive results are not listed. The source made the active and inactive calls. Calls follow the shape of the dose curve; as a rule, active = well fitted cell-killing curve with a large enough effect in the repeat runs; inconclusive = weak or mixed curves, or effect the other way; inactive = no such curve, though single readings can be large or run the other way.
Return exactly one item of y (active), n (inactive)

IN: GET /call?item= Cc1nnc2n1-c1ccc(Cl)cc1C(c1ccccc1Cl)=NC2 returns the recorded outcome of this test.
OUT: n

IN: GET /call?item= CCN(CC)CCO[C@H]1CC[C@@]2(C)C(=CC[C@@H]3[C@@H]2CC[C@]2(C)C(=O)CC[C@@H]32)C1 returns the recorded outcome of this test.
OUT: y

IN: GET /call?item= c1csc(C2(N3CCCCC3)CCCCC2)c1 returns the recorded outcome of this test.
OUT: n

IN: GET /call?item= CC(=O)[C@@]1(O)CC[C@H]2[C@@H]3CCC4=CC(=O)CC[C@]4(C)C3(F)[C@@H](O)C[C@@]21C (stereo not given in full) returns the recorded outcome of this test.
OUT: n

IN: GET /call?item= CN1C(=O)CC(=O)N(c2ccccc2)c2cc(Cl)ccc21 returns the recorded outcome of this test.
OUT: n

IN: GET /call?item= C[C@]12CC[C@H]3[C@@H](CCC4=C(Cl)C(=O)CC[C@@]43C)[C@@H]1CC[C@@H]2O returns the recorded outcome of this test.
OUT: y

IN: GET /call?item= CC(=O)OCC(=O)[C@H]1CC[C@H]2[C@@H]3CC[C@H]4C[C@H](O)CC[C@]4(C)[C@H]3C(=O)C[C@]12C returns the recorded outcome of this test.
OUT: n

IN: GET /call?item= Cc1nnc2n1-c1sc(CCc3ccc(CC(C)C)cc3)cc1C(c1ccccc1Cl)=NC2C (stereo not given) returns the recorded outcome of this test.
OUT: y

IN: GET /call?item= O=C1CCCCC1CN1CCCCC1 (stereo not given) returns the recorded outcome of this test.
OUT: y

IN: GET /call?item= CCCC(=O)OC(C(Cl)(Cl)Cl)P(=O)(OC)OC (stereo not given) returns the recorded outcome of this test.
OUT: n

---

# MEASUREMENT PROTOCOL: qHTS assay for small molecule disruptors of the mitochondrial membrane potential (AID 720635)
# STATED CONDITIONS: HepG2 mitochondrial membrane potential, Mito-MPS dye ratio; series mostly up to 83.2 µM
Results filed as inconclusive are left out. The source made the active and inactive calls. Calls come from the whole dose curve; as a rule, active = well fitted inhibition curve with a large enough effect in the signal ratio in the repeat runs; inconclusive = weak or mixed curves, or effect the other way; inactive = flat fitted curve, though single readings scatter; the % refers to the signal ratio.
Return exactly one item of TRUE (active), FALSE (inactive)

IN: GET /call?item= C[C@H]1CC[C@]2(NC1)O[C@H]1C[C@H]3[C@@H]4CC[C@H]5C[C@@H](O[C@@H]6O[C@H](CO)[C@H](O[C@@H]7O[C@H](CO)[C@@H](O)[C@H](O[C@@H]8OC[C@@H](O)[C@H](O)[C@H]8O)[C@H]7O[C@@H]7O[C@H](CO)[C@@H](O)[C@H](O)[C@H]7O)[C@H](O)[C@H]6O)CC[C@]5(C)[C@H]4CC[C@]3(C)[C@H]1[C@@H]2C returns the recorded outcome of this test.
OUT: TRUE

IN: GET /call?item= O=C(NC(=O)c1c(F)cccc1F)Nc1ccc(Cl)c(Oc2ncc(C(F)(F)F)cc2Cl)c1 returns the recorded outcome of this test.
OUT: TRUE

IN: GET /call?item= C[C@@H](CO)NC(=O)[C@@H]1C=C2c3cccc4[nH]cc(c34)C[C@H]2N(C)C1 returns the recorded outcome of this test.
OUT: TRUE

IN: GET /call?item= NCC(O)c1cccc(O)c1 (centres undefined) returns the recorded outcome of this test.
OUT: FALSE

IN: GET /call?item= CCCCNC(C)(C)[P+](=O)O returns the recorded outcome of this test.
OUT: FALSE

IN: GET /call?item= COc1ccc2c(c1)C13CCCC[C@@H]1C(C2)N(C)CC3 (some centres undefined) returns the recorded outcome of this test.
OUT: FALSE

IN: GET /call?item= N#CC1(N2CCCCC2)CCCCC1 returns the recorded outcome of this test.
OUT: FALSE

IN: GET /call?item= O=C1C[C@@H]2OCC=C3CN4CC[C@]56c7ccccc7N1[C@H]5[C@H]2[C@H]3C[C@H]46 (tested in a mixture with another compound) returns the recorded outcome of this test.
OUT: FALSE

IN: GET /call?item= CC1COC(Cn2cncn2)(c2ccc(Oc3ccc(Cl)cc3)cc2Cl)O1 (centres undefined) returns the recorded outcome of this test.
OUT: TRUE

IN: GET /call?item= COc1ccc(C(c2ccc(OC)cc2)C(Cl)(Cl)Cl)cc1 returns the recorded outcome of this test.
OUT: TRUE

IN: GET /call?item= OCC(c1ccc(Cl)cc1)c1ccc(Cl)cc1 returns the recorded outcome of this test.
OUT: TRUE

IN: GET /call?item= CC(C)C[C@H]1C(=O)N2CCC[C@H]2[C@]2(O)O[C@](NC(=O)[C@@H]3C[C@@H]4c5cccc6[nH]cc(c56)C[C@H]4N(C)C3)(C(C)C)C(=O)N12 returns the recorded outcome of this test.
OUT: FALSE

IN: GET /call?item= COc1cc([C@@H]2c3cc4c(cc3[C@@H](O)[C@H]3COC(=O)[C@H]23)OCO4)cc(OC)c1O returns the recorded outcome of this test.
OUT: TRUE

IN: GET /call?item= C=CCN1CC[C@]23c4c5ccc(O)c4O[C@H]2[C@@H](O)C=C[C@H]3[C@H]1C5 returns the recorded outcome of this test.
OUT: FALSE

IN: GET /call?item= CN[C@]1(c2ccccc2Cl)CCCCC1=O returns the recorded outcome of this test.
OUT: FALSE

IN: GET /call?item= C[C@]12CC[C@@H]3c4ccc(OC(=O)N(CCCl)CCCl)cc4CC[C@H]3[C@@H]1CC[C@@H]2OP(=O)(O)O returns the recorded outcome of this test.
OUT: FALSE

IN: GET /call?item= CCOC(=O)C1(c2ccccc2)CCCN(C)CC1 (centres undefined) returns the recorded outcome of this test.
OUT: FALSE

IN: GET /call?item= C=CCC1(C(C)CCC)C(=O)N=C(S)NC1=O (centres undefined) returns the recorded outcome of this test.
OUT: FALSE

IN: GET /call?item= O=C(O)CCCO returns the recorded outcome of this test.
OUT: FALSE

IN: GET /call?item= Clc1ccc2c(c1)C(c1ccccc1)=NCc1nncn1-2 returns the recorded outcome of this test.
OUT: FALSE

IN: GET /call?item= COc1ccc2c3c1O[C@H]1[C@@H](O)C=C[C@H]4[C@@H](C2)NCC[C@@]341 returns the recorded outcome of this test.
OUT: FALSE

IN: GET /call?item= CN(C)CCCCCCN(C)C (tested in a mixture with another compound) returns the recorded outcome of this test.
OUT: FALSE

IN: GET /call?item= CC1(C)[C@H](C=C(Cl)Cl)[C@H]1C(=O)OCc1c(F)c(F)cc(F)c1F returns the recorded outcome of this test.
OUT: TRUE

IN: GET /call?item= CNC(C)C(O)c1ccc(O)cc1 (centres undefined) returns the recorded outcome of this test.
OUT: FALSE

IN: GET /call?item= Cc1nnc2n1-c1ccc(Cl)cc1C(c1ccccc1Cl)=NC2 returns the recorded outcome of this test.
OUT: FALSE

IN: GET /call?item= CN(C)CCCCCCN(C)C returns the recorded outcome of this test.
OUT: FALSE

IN: GET /call?item= COC1=CC=C2[C@H]3Cc4ccc(OC)c5c4[C@@]2(CCN3C)[C@H]1O5 returns the recorded outcome of this test.
OUT: FALSE

IN: GET /call?item= CCCCNCC(O)c1ccc(O)cc1 (centres undefined) returns the recorded outcome of this test.
OUT: FALSE

IN: GET /call?item= CCCCc1ccc(C(=O)O)nc1 returns the recorded outcome of this test.
OUT: FALSE
